- Assayed Target: MAGL (Homo sapiens)
- Assay Method Text: 2-AG assay (MAGL inhibitory activity, hydrolysis of 2-arachidonoylglycerol to arachidonic acid followed by mass spectrometry)
- Type: biochemical
- Test Settings: 8 μM 2-arachidonoylglycerol, 15 min pre-incubation, 30 min incubation at RT, RapidFire MS readout
For each of the compounds below, state its IC50.

Answered cases to consult:
[
  {
    "Compound": "O=C(N1CC(c2cnc(N3CC(C(F)(F)F)C3)nc2)C1)N1CC2(CC(n3cnc(C4CC4)n3)C2)C1 [Example 479]",
    "IC50": "7.5 nM"
  },
  {
    "Compound": "O=C(N1CC(c2ccc(N3CC(C(F)(F)F)C3)nc2)C1)N1CC2(CC(n3cnc(C4(O)CC4)n3)C2)C1 [Example 496]",
    "IC50": "9.34 nM"
  }
]

Value wanted: IC50 (MAGL (Homo sapiens)) of entry O=C(N1CC2(CC(n3cnc(C4CC4)n3)C2)C1)N1CC2(C1)CN(S(=O)(=O)c1ccc(F)c(C(F)(F)F)c1)C2 [Example 236]
6.2 nM

----------
Please consider the recorded pIC50 for MAGL (Homo sapiens, UniProt Q99685) in what follows.
Answers are plain numbers, as −log10 of the molar value.

[
  {
    "Compound": "Cc1cc(C2CC2)n(C23CC(C4CN(C(=O)N5CC6(CC(n7cnc(C8(O)CC8)n7)C6)C5)C4)(C2)C3)n1 [Example 355]",
    "pIC50": 6.87
  },
  {
    "Compound": "O=C(N1CC2(CC(c3ccc(C(F)(F)F)nc3)C2)C1)N1CC2(CN(Cc3ccc(S(=O)(=O)C(F)(F)F)cc3)C2)C1 [Example 526]",
    "pIC50": 6.45
  },
  {
    "Compound": "N=S(=O)(c1cccc(CC2CC3(C2)CN(C(=O)N2CC4(CC(n5cnc(C6(O)CC6)n5)C4)C2)C3)c1)C(F)(F)F (single isomer, unassigned) [Example 407]",
    "pIC50": 9.60
  },
  {
    "Compound": "O=C(N1CC(OCc2ccc(C(F)(F)F)cc2)C1)N1CC2(CC(n3cnc(C4CC4)c3)C2)C1 [Example 101]",
    "pIC50": 7.38
  },
  {
    "Compound": "Cc1oncc1S(=O)(=O)N1CC2(CN(C(=O)N3CC4(CC(n5cnc(C6CC6)n5)C4)C3)C2)C1 [Example 300]",
    "pIC50": 7.02
  }
]

Next compound, pIC50 to be filled in.
Value wanted: pIC50 (MAGL (Homo sapiens, UniProt Q99685)) of entry O=C(N1CC(C#Cc2ccccc2C(F)F)C1)N1CC2(CC(n3cnc(C4CC4)c3)C2)C1 [Example 139]
7.94

----------
- Assayed Target: MAGL (Homo sapiens)
- Sequence (Q99685 1-303): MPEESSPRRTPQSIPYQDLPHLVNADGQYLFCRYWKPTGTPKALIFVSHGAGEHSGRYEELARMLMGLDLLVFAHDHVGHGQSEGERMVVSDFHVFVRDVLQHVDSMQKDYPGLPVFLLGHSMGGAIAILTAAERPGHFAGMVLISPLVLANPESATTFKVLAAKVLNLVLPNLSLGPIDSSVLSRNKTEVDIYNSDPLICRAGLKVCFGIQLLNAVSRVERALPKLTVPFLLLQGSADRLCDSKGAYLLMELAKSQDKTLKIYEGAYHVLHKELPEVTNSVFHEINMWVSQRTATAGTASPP
Assay Readout: pIC50
One number for each entry, as −log10 of the molar value.

[
  {
    "Smiles Repr": "O=C(N1CCC(CNS(=O)(=O)c2ccccc2)CC1)N1CC2(CC(n3cnc(C4CC4)n3)C2)C1",
    "pIC50": 6.32
  },
  {
    "Smiles Repr": "CC1(O)CN(c2ccc(C3CN(C(=O)N4CC5(CC(n6cnc(C7CC7)n6)C5)C4)C3)cn2)C1",
    "pIC50": 7.86
  },
  {
    "Smiles Repr": "Cc1ccn(C2CC3(C2)CN(C(=O)c2ccc(-c4noc(C(C)(C)C)n4)cc2)C3)n1",
    "pIC50": 5.85
  }
]

List reported pIC50 for each of these compounds:
1. O=C(N1CC2(CC(n3cnc(C4CC4)n3)C2)C1)N1CC2(CCN(Cc3ccc(C(F)(F)F)cn3)C2)C1
2. O=C(N1CC2(CC(n3cnc(C4CC4)n3)C2)C1)N1CC2(C1)CN(S(=O)(=O)C1CCCCC1)C2

1. 8.43
2. 8.52

List reported pIC50 for each of these compounds:
1. O=C(N1CC2(CCC(Cc3ccc(F)cn3)CC2)C1)N1CC2(CC(c3ccc(C(F)(F)F)nc3)C2)C1
2. O=C(N1CC(Oc2nccc(C3CC3)c2F)C1)N1CC2(CC(n3cnc(C4CC4)n3)C2)C1
3. O=C(N1CC2(CC(Oc3ccc(F)cc3F)C2)C1)N1CC2(CC(n3cnc(C4CC4)n3)C2)C1
4. O=C(N1CC(C23CC(CNC4(C(F)(F)F)CC4)(C2)C3)C1)N1CC2(CC(n3cnc(C(F)(F)F)n3)C2)C1

1: 6.16; 2: 9.10; 3: 8.59; 4: 9.13

List reported pIC50 for each of these compounds:
1. O=C(N1CC(CNS(=O)(=O)c2ccc(C(F)(F)F)cc2)C1)N1CC2(CC(n3cnc(C4CC4)n3)C2)C1
2. O=C(N1CC2(CC(n3cnc(C4CC4)n3)C2)C1)N1CC2(C1)CN(S(=O)(=O)N1CCCCC1)C2
3. O=C(N1CC(OCc2ccc(S(F)(F)(F)(F)F)cc2)C1)N1CC2(CC(n3cnc(C(F)(F)F)c3)C2)C1
4. N#Cc1cc(C2CN(C(=O)N3CC4(CC(n5cnc(C6CC6)n5)C4)C3)C2)ccc1OC(F)(F)F
5. CC1(Cc2nnc(-c3ccc(C4CN(C(=O)N5CC6(CC(n7cnc(C8CC8)n7)C6)C5)C4)cc3)[nH]2)CC1

1. 7.45
2. 8.19
3. 6.87
4. 8.62
5. 9.03
